# protocolDescription: HepG2 liver cancer cell viability effects, profiling panel, resazurin fluorescence, 24 h, PK04 Diversity Set (AID 1172); note: test concentration not given here
# conditionSummary: higher = more signal
readoutType: z-score
// return a plain number; no unit text

Below: 4 molecules and their reported z-score.
[[record]]
molecule = "O=C1[C@H]2[C@H]3[C@H](O)[C@H](O)CC(=NO[C@@H]4O[C@H](CO)[C@@H](O)[C@H](O)[C@H]4O)[C@H]3CC[C@H]2C(=O)N1C1CCCCC1"
readouttype = "z-score"
testvalue = 0.241

[[record]]
molecule = "CCc1cc2c(nc1CC)CCN(CCC(C)=NOC(C)CN1CCCc3nc(C)c(C)cc31)C2 (centres undefined)"
readouttype = "z-score"
testvalue = -0.644

[[record]]
molecule = "C#CCCCON=C1C[C@@H](O)[C@@H](O)[C@@H]2[C@@H]3C(=O)N([C@@H](C)c4ccccc4)C(=O)[C@@H]3CC[C@H]12"
readouttype = "z-score"
testvalue = -0.331

[[record]]
molecule = "CC(C)NC(=O)[C@@H]1c2ccccc2C(=O)N(CC23CC4CC(CC(C4)C2)C3)[C@H]1c1ccc(CO)cc1"
readouttype = "z-score"
testvalue = 0.64


### Prompt Param item = CO[C@@H]1COC(=O)CC=C[C@@H](C)[C@H](OC)COC(=O)[C@H](COCc2ccccc2)NC(=O)CC=C[C@H]1C ; retrieve measured z-score.
### Response 0.628

### Prompt Param item = COC(=O)CC=C[C@H](C)[C@@H](OCc1ccccc1Br)C(C)C ; retrieve measured z-score.
### Response -0.285

### Prompt Param item = O=C1O[C@@H](c2ccccc2)[C@@H](c2ccccc2)N2[C@@H](c3ccccc3OCCO)[C@]3(C(=O)Nc4ccc(C#CCCO)cc43)[C@@H](C(=O)O)[C@H]12 ; retrieve measured z-score.
### Response -0.307

### Prompt Param item = O=C1[C@H]2[C@H]3[C@H](O)[C@H](O)CC(=NOCc4ccccc4)[C@@H]3CC[C@H]2C(=O)N1Cc1ccccc1 ; retrieve measured z-score.
### Response 1.38

### Prompt Param item = CCCCCN1CC=CC23O[C@@H]4C=CCOC(=O)[C@@H]4[C@H]2C(=O)N(CCCCCCO)[C@@H]3C1=O (some centres undefined) ; retrieve measured z-score.
### Response 0.547

### Prompt Param item = COCCOC(=O)N1C(=O)[C@@]2(c3cc(C#CCNC(N)=O)ccc31)[C@H](c1ccccc1OCCO)N1[C@H](c3ccccc3)[C@H](c3ccccc3)OC(=O)[C@H]1[C@@H]2C(=O)N1CCN(c2ncccn2)CC1 ; retrieve measured z-score.
### Response -0.0783

### Prompt Param item = C[C@H]1CC[C@@H](C(=O)O)N[C@@H]1c1ccc(C#CCN(C)C)cc1 ; retrieve measured z-score.
### Response 0.378

### Prompt Param item = COC(=O)[C@@]1(Cc2ccc(F)cc2)[C@H]2c3cc(C(=O)N(C)C)n(Cc4ccc(OC)c(OC)c4)c3C[C@H]2CN1C(=O)c1ccccc1 ; retrieve measured z-score.
### Response -1.05

### Prompt Param item = CO[C@@H]1COC(=O)[C@H](C)NC(=O)[C@@H](C)COC(=O)CCC[C@H]1C ; retrieve measured z-score.
### Response 0.868

### Prompt Param item = COC(=O)[C@H](C)NC(=O)[C@@H](C)CO ; retrieve measured z-score.
### Response -1.1

### Prompt Param item = O=C1O[C@@H](c2ccccc2)[C@@H](c2ccccc2)N2[C@@H](c3ccc(OCCO)cc3)[C@]3(C(=O)Nc4ccccc43)[C@@H](C(=O)N3CCN(c4ncccn4)CC3)[C@H]12 ; retrieve measured z-score.
### Response -0.18

### Prompt Param item = COc1cccc([C@H]2Oc3ccc(OC)cc3C(=NO[C@H](C)c3cn([C@@H]4COC[C@H]4O)nn3)[C@@H]2O)c1 ; retrieve measured z-score.
### Response -0.859

### Prompt Param item = Cc1cc(C)c(-c2cc([C@H](C)ON=C3[C@H]4CCn5c(=O)n(-c6ccccc6)c(=O)n5[C@H]4[C@H](O)[C@@H]4O[C@H]34)on2)c(C)c1 ; retrieve measured z-score.
### Response -0.991

### Prompt Param item = CCCCCCc1nc(CCCc2cc3c(c(CCCCCC)n2)[Si](C(C)C)(C(C)C)O[C@H]3c2ccccc2)cc2c1[Si](C(C)C)(C(C)C)O[C@H]2c1ccccc1 ; retrieve measured z-score.
### Response 0.0054

### Prompt Param item = C[N+](C)(C)CCCCCCNC(=O)[C@@H]1C[C@@H]2C(=O)N3CCC[C@H]3C(=O)N2[C@@H]1c1cccc(OCCO)c1 ; retrieve measured z-score.
### Response 2.14

### Prompt Param item = CC[C@@H](c1ccccc1)n1c(=O)n2n(c1=O)[C@H]1[C@H](O)[C@@H]3O[C@@H]3C(=NOCC=C(C)CCC=C(C)C)[C@H]1CC2 ; retrieve measured z-score.
### Response -0.301

### Prompt Param item = COCCOC(=O)N1C(=O)[C@@]2(c3cc(C#CC4(O)CCCCCC4)ccc31)[C@H](c1ccc(OCCO)cc1)N1[C@H](c3ccccc3)[C@H](c3ccccc3)OC(=O)[C@H]1[C@@H]2C(=O)NC[C@H](O)c1ccccc1 ; retrieve measured z-score.
### Response -0.259

### Prompt Param item = CCc1cc2c(nc1CC)CCN(CCC(C)=NO[C@@H](C)c1cc(-c3c(C)cc(C)cc3C)no1)C2 ; retrieve measured z-score.
### Response -0.0169
